Below are pKi values recorded for Kappa-type opioid receptor (Homo sapiens, UniProt P41145).
Numbers only, as −log10 of the molar value.

Worked cases, pKi given:
O=C1CCC[C@@]2(O)C3Cc4ccc(O)cc4[C@@]2(CCN3CC2CC2)C1
9.13
Oc1ccc2c(c1)[C@]13CCN(CC4CC4)C(C2)[C@]1(O)Cc1c([nH]c2ccccc12)C3
8.53
O=C1CC[C@@]2(O)[C@H]3Cc4ccc(O)cc4[C@@]2(CCN3CC2CC2)C1
9.19
O=C1C[C@]23CCN(CC4CC4)[C@H](Cc4ccc(O)cc42)[C@]3(O)C/C1=C/c1ccccc1
8.02

For each entry beneath this line, provide reported pKi.
1. O=C1/C(=C/c2ccccc2)C[C@@]2(O)[C@H]3Cc4ccc(O)c5c4[C@@]2(CCN3CC2CC2)[C@H]1O5
2. Oc1ccc2c(c1)[C@]13CCN(CC4CC4)C(C2)[C@]1(O)Cc1cc2ccccc2nc1C3
3. Oc1ccc2c(c1)[C@]13CCN(CC4CC4)C(C2)[C@]1(O)CCc1c([nH]c2ccccc12)C3
4. O=C1C[C@]23CCN(CC4CC4)[C@H](Cc4ccc(O)cc42)[C@]3(O)C/C1=C\c1ccccc1

1. 7.55
2. 8.49
3. 8.18
4. 7.41
